system: LoVo; test: MTS cytotoxicity assay, LoVo; type: cell-based; details: Homo sapiens, normoxic, 24 h exposure
readout: IC50
Include the unit right after the number.

The compound "CN(C)CCNc1ccc(NCCN(C)C)c2c1C(=O)c1c(O)ccc(O)c1C2=O" on LoVo: IC50 was 210 nM

---

test system: MiaPaCa; assay: MTS cytotoxicity assay, MiaPaCa; settings: Homo sapiens, MIA PaCa-2, 24 h
readout: pIC50
Give only the number. pIC50 is defined as minus log10 of concentration in molar units.

Let me check: Nc1ccn([C@@H]2O[C@H](CO)[C@@H](O)C2(F)F)c(=O)n1 [gemcitabine] , system MiaPaCa, measured pIC50 is 7.64

Tested on MiaPaCa, the item CN(C)CCNc1ccc(NCCN(C)C)c2c1C(=O)c1c(O)ccc(O)c1C2=O [AQ4] showed pIC50 equal to 5.80

---

test system: ARH177; assay: MTS cytotoxicity assay, ARH177; conditions: 24 h
readout: pIC50
// pIC50 is dimensionless: -log10 of concentration (M)

Entry under test: CN(C)CCNc1ccc(NCCN(C)C)c2c1C(=O)c1c(O)ccc(O)c1C2=O [AQ4] . Its pIC50 was 6.70
